Taken from patent US20240270821A1.

- testTarget: T1, human GIP receptor (human) (UniProt P48546)
- T1 sequence (looked up): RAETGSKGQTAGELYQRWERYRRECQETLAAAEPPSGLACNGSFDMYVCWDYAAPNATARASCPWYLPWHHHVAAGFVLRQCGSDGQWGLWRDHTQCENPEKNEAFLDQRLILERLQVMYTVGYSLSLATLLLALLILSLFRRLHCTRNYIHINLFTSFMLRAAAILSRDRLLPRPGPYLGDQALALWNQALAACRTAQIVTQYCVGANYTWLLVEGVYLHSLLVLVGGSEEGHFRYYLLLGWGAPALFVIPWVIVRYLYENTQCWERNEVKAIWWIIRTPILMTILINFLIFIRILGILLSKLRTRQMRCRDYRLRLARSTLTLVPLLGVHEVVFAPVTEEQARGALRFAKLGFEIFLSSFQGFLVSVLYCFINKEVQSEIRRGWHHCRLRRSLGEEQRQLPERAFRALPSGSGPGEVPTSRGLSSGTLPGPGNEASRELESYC
- measurementProtocol: cell-based or functional assay
Starred links: 1 amine or outer side, 2 acyl side, 3 side chain; linkers in the order of their positions; H or OH if unused. Non-standard residues stand in square brackets, D forms with d. Groups on a side chain read outwards from the residue. No end group written: not given here. *: point of attachment. C20 diacid = O=C(O)CCCCCCCCCCCCCCCCCCC(=O)*; αMePhe(2-F) = C[C@](N)(Cc1ccccc1F)C(=O)O; γGlu = O=C(O)[C@H](CCC(=O)[*:2])N[*:1]; AEEA = NCCOCCOCC(=O)O; Aib = CC(C)(N)C(=O)O
measuredAttribute: cAMP Rel EC50 (1% HSA) (nM)

binder | measuredAttribute | recordedMeasurement
YXQGTXTSDXXIXLDXXAQXEFIEXLVEGGPSSGAPPPSGS (synthetic construct; SITE 2: note = 2-Aminoisobutyric Acid; SITE 6: note = alpha-methyl-2-fluoro-L-phenylalanine; SITE 10: note = 3-(4-Pyridyl)-L-alanine; SITE 11: note = alpha-methyl-L-serine; SITE 13: note = alpha-methyl-leucine; SITE 16: note = L-ornithine; SITE 17: note = Ornithine is chemically) [Example 1210] | cAMP Rel EC50 (1% HSA) | 0.635
Y[Aib]QGT[αMePhe(2-F)]TSDYSKILDKIAQK([AEEA-γGlu-C20 diacid])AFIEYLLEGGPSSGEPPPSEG-NH2 [Example 311] | cAMP Rel EC50 (1% HSA) | 26.1
YXQGTFTSDXSQXLDXKAQXAFIEXLIEXGPSSGEPPPSGSEE (not fully specified; Aib, 4Pal, Orn, Me4Pal, αMeY; lipidated Lys; C-terminal amide; synthetic construct; SITE 2: note = 2-Aminoisobutyric Acid; SITE 10: note = 3-(4-Pyridyl)-L-alanine; SITE 13: note = alpha-methyl-leucine; SITE 16: note = L-ornithine; SITE 17: note = Lysine is chemically modified through conjugation of the epsilon-amino group of the Lysine side chain with D-Glutami) [Example 1103] | cAMP Rel EC50 (1% HSA) | 19.5
YXQGTXTSDXSILLDKKAQXAFIEYLEEGGPSSGAPPPEGTE (synthetic construct; SITE 2: note = 2-Aminoisobutyric Acid; SITE 6: note = alpha-methyl-2-fluoro-L-phenylalanine; SITE 10: note = 3-(4-Pyridyl)-L-alanine; SITE 17: note = Lysine is chemically modified through conjugation of the epsilon-amino group of the Lysine side chain with (gamma-Glu)2-CO-(CH2)1) [Example 659] | cAMP Rel EC50 (1% HSA) | 5.75
YXQGTFTSDXSKXLDKKAQXAFIEXLIEXGPSSGAPPPSGS (Aib, 4Pal, αMeL, Me4Pal; lysine acylated C18 diacid; amide; synthetic construct; SITE 2: note = 2-Aminoisobutyric Acid; SITE 10: note = 3-(4-Pyridyl)-L-alanine; SITE 13: note = alpha-methyl-leucine; SITE 17: note = Lysine is chemically modified through conjugation of the epsilon-amino group of the Lysine side chain with (2-[2-(2-Amino-ethoxy)-ethoxy]-acetyl)) [Example 916] | cAMP Rel EC50 (1% HSA) | 4.78
YXQGTXTSDXXIXLDXKAQXXFIEYLIEGGPSSGEPPPSGTE (not fully specified; printed without C-terminal amide; synthetic construct; SITE 2: note = 2-Aminoisobutyric Acid; SITE 6: note = alpha-methyl-2-fluoro-L-phenylalanine; SITE 10: note = 3-(4-Pyridyl)-L-alanine; SITE 11: note = alpha-methyl-L-serine; SITE 13: note = alpha-methyl-leucine; SITE 16: note = L-ornithine; SITE 17: note = Lysine is chemically mo) [Example 522] | cAMP Rel EC50 (1% HSA) | 1.95
